# Assay Summary: AUC (0 to infinity) in rat at 1 mg/kg, iv
# Type: ADME, organism-based
# Design: time infinity, dose 1 mg/kg, route intravenous
# Cond: plasma
Readout Kind: AUC(0-inf) (ng·h/mL)
Enter your answer as a number in ng·h/mL; do not include the unit.

I am curious: what AUC(0-inf) value has been reported for CCOC(=O)N1CCCOc2cc(Nc3ncc(Cl)c(Nc4c(F)cccc4C(=O)NC)n3)ccc21 ?
1220

----------
Could you please report measured AUC(0-inf) for the items listed next?
# Assay Summary: AUC (0 to infinity) in rat at 5 mg/kg, po
# Assay type: ADME, organism-based
# Set-up: time infinity, dose 5 mg/kg, route oral
# Cond: plasma

I am curious: what AUC(0-inf) value has been reported for CCN1CCCOc2cc(Nc3ncc(Cl)c(Nc4c(F)cccc4C(=O)NC)n3)ccc21 ?
< 100 ng·h/mL

For CNC(=O)c1cccc(F)c1Nc1nc(Nc2ccc3c(c2)OCCCN3CCN2CCCC2)ncc1Cl then?
< 100 ng·h/mL

For CCOC(=O)N1CCCOc2cc(Nc3ncc(Cl)c(Nc4c(F)cccc4C(=O)NC)n3)ccc21 then?
913 ng·h/mL
